We begin with Ki values for Carbonic anhydrase 4 (Bos taurus), as collected from the published literature.
measureName: Ki (nM)

Would you please look over these solved cases?
compound: NCCCC(=O)Nc1ccccc1S(N)(=O)=O
unitName: nM
Ki: 243

compound: NC(=O)CCC(NC(=S)Nc1ccc(S(N)(=O)=O)cc1)C(=O)O (centres undefined)
unitName: nM
Ki: 23

compound: NS(=O)(=O)c1ccc(CNC(=O)CNCC(=O)O)cc1
unitName: nM
Ki: 279

[A] C[C@H](CCC(=O)Nc1ccc(S(N)(=O)=O)cc1Cl)[C@H]1CC[C@H]2[C@@H]3[C@H](O)C[C@@H]4C[C@H](O)CC[C@]4(C)[C@H]3CC[C@]12C
[B] Nc1c(I)cc(S(=O)(=O)Nc2nnc(S(N)(=O)=O)s2)cc1I
[C] NS(=O)(=O)c1cc(S(N)(=O)=O)c(NC(=O)C(F)(F)C(F)(F)C(F)(F)C(F)(F)C(F)(F)C(F)(F)C(F)(F)C(F)(F)F)c(Cl)c1Cl
[D] Cc1cc(-c2ccccc2)cc(C)[n+]1CC(=O)Nc1cc(C(F)(F)F)c(S(N)(=O)=O)cc1S(N)(=O)=O
Challenge: Ranking field: Ki; order: falling. State the ranking by listing the labels in the requested order.
Response given: C, A, D, B
(C: 830 nM, A: 150 nM, D: 33 nM, B: 2.3 nM)

[A] NS(=O)(=O)c1nnc(NC(=O)CCNC(=O)CN(CC(=O)O)CC(=O)O)s1
[B] NS(=O)(=O)c1ccc(NCc2cc(=O)oc3cc(Cl)ccc23)c(Cl)c1
Challenge: Choose between A and B : whose measured Ki value is numerically larger? Give the label of your selection.
Response given: B
(B: 96 nM, A: 45 nM)
